assay: Inhibition of pig purple acid phosphatase at pH 3.3; set-up: species or system Sus scrofa
Square brackets hold non-standard residues; d marks the D form. Peptide text beside a SMILES is read from it. * marks the point of attachment. Phe(4-COOH) = N[C@@H](Cc1ccc(C(=O)O)cc1)C(=O)O; Fmoc = O=C(OCC1c2ccccc2-c2ccccc21)*
compounds and their reported pKi
pKi here: minus log base 10 of the concentration, concentration in moles per litre.

Some entries whose results are on file:
compound	experimental-result
C[C@H](NC(=O)[C@H](Cc1ccc(C(=O)O)cc1)NC(=O)[C@H](CCC(=O)O)NC(=O)OCC1c2ccccc2-c2ccccc21)C(N)=O (Fmoc-Glu-[Phe(4-COOH)]-Ala-NH2)	4.00
C[C@H](NC(=O)[C@H](Cc1ccc(C(F)(C(=O)O)C(=O)O)cc1)NC(=O)[C@H](CCC(=O)O)NC(=O)OCC1c2ccccc2-c2ccccc21)C(N)=O	5.10
CC(=O)Oc1cc(C[C@H](NC(=O)[C@H](CCC(=O)O)NC(=O)OCC2c3ccccc3-c3ccccc32)C(=O)N[C@@H](C)C(N)=O)ccc1OCC(=O)O	3.38
C[C@H](NC(=O)[C@H](Cc1ccc(C(C(=O)O)C(=O)O)cc1)NC(=O)[C@H](CCC(=O)O)NC(=O)OCC1c2ccccc2-c2ccccc21)C(N)=O	5.22
C[C@H](NC(=O)[C@H](Cc1ccc(CC(=O)O)c(C(=O)O)c1)NC(=O)[C@H](CCC(=O)O)NC(=O)OCC1c2ccccc2-c2ccccc21)C(N)=O	3.70

Look up pKi: C[C@H](NC(=O)[C@H](Cc1ccc(OCC(=O)O)c(C(=O)O)c1)NC(=O)[C@H](CCC(=O)O)NC(=O)OCC1c2ccccc2-c2ccccc21)C(N)=O
3.95
